- Tested on: MS2 coat protein
- Procedure details: apparent KD of MS2 coat protein; higher = weaker reporter binding
- Measurement setup: Eterna round: R107; input ligand: theophylline 20 uM
Answer each item with its documented apparent KD of MS2 coat protein.
Give bare numbers, in nM.

Some sequences with recorded apparent KD of MS2 coat protein:
Item sequence	Test system	apparent KD of MS2 coat protein (nM)
AAAAUAAAGGCGGCCGCCACUAGAGUUAGGCAUAUGUACUGGGUAACAUGAGGAUCACCCAUGUAUAGGACCGGGCCAUAAUAAA [Same State - Tryptophan B (Freestyle 1)]	MS2 coat protein	46.2
GAACAAGGUUUCUUGUUCGGUCGCUGAGAAGGAGCGCGGUAACCCGCAGGUAGGUCGCUCAGAAAUACAUGAGGAUCACCCAUGU [Anaa]	MS2 coat protein	26.4
CAAUGCGGUUAGGAUACCAGCGACACACACUUCUCACAACACAUGAGGAUCACCCAUGUCCGCCCUUGGCAGCCUUGACUAAGGU [theeternabot_exclusion_MS2_Theo_B_39]	MS2 coat protein	51.8
ACAUGAGGAUCACCCAUGUUUGUUGUUCCUCGAGGACCGGUACGGCCGCCACUCGAACGAGUGGCACGCGAGUGCGCACUCGCGU [aPa]	MS2 coat protein	19.6
UUUAUUAUUGACUCGUUAUUGUUUUUGGAUCGAGGACCGGUACGGCCGCCACUCGUGAUAUACAUGAGGAUCACCCAUGUUAGCA [JR_Nu_SSTryptoA_Sub020]	MS2 coat protein	22

Each sequence below has a recorded value; state its apparent KD of MS2 coat protein.
1. GUAAGACAUGAGGAUCACCCAUGUGUCGAUACCAGCCCUGCCUCUGGCCCUUGGCAGCGACUCGCACACCUCGCACUGCACAAGU [theeternabot_sameState_MS2_Theo_A_13]
2. GCACAUGAGGAUCACCCAUGUAUUACUGAAGGAGCGAGACAGAACUCAGGUAGGUCGCAGACGGCGGAAUCGCCGACGACAUGGG [Exclusion Arginine A GF23]
3. CGACGAGACCUGGAUACCAGCGACAUGAGGAUCACCCAUGUAUGUGGAUCAGCCAUGAUAUGCCCUUGGCAGCCACCGAGGUCGG [PPPMULLIN]

[59.5, 66.5, 20.8]

For each entry beneath this line, provide reported apparent KD of MS2 coat protein.
1. CCGGAGACCUCGGCCGCCACUCUCCAUGAGGAUCUCCCAUGUAACAUGAGGAUCACCCAUGUGCUGAGGACCGGGAGGUCCUCCU [Same State Tryptophan B GF 20]
2. AUAACGAGUGGUGGAUAAUCCUCAUGUAAACGAGGACCGGUACGGCCGCCACUCGAUAACAUGAGGAUCACCCAUGUAAUAAUAA [|T'-M'-Trp-Ms2|_Design17]
3. GAAUUAUGACGUGAUACCAGUGGUCAAUACUGGGAACUUAACAUGAGGAUCACCCAUGUCCACCCUUGGCAGCACGCUGACAAUC [theeternabot_exclusion_MS2_Theo_B_14]
4. UGGUCCGUCGGAAGGAGCGACAUGAGGAUCACCCAUGUCUCCCGUUAUGGGAGUUCUUUAGGUCAGGUAGGUCGCCGGCGGGUCA [#1 Exclusion - Arginine B Attempt #12 (Inspired by Omei)]
5. ACAUGAGGAUCACCCAUGUUCAUGCGGGAAGGAGCGUGCGGAAGCACAGGUAGGUCGCCCUCAAUAUCUAACGUUACGUUCAUGA [#26 Same State - Arginine A]
6. CGUAUGUAGACGGCCGCCACUGGAACAAGAGGAUCACCCUUGUACAGGGUGGGACUAUCGAGAGUCAGGACCGGGUCUACAUACA [Tryp B Ex t2]

[16.4, 20.8, 133, 209, 18.4, 190]

Batch request: apparent KD of MS2 coat protein for each of the following sequences.
1. AAAUAAUCUAGUCCACAAUGUGACUCAGAUACCAGUGCAAAGCUACACCCUUGGCAGCUGGUUACAUGAGGAUCACCCAUGUCGU [theeternabot_exclusion_MS2_Theo_A_50]
2. ACGAACGAUAGUGAUACCAGACGUACAUGAGGAUCACCCAUGUUAUACACAUGGUUUAUUGUCCCUUGGCAGCACGUUAAGUUCG [JR_ExcTheophyB_Sub005]
3. AGAAUAACACAUGAGGAUCACCCAUGUGAUACCAGCUAGGAAACUAGCCCUUGGCAGCACAUAAUCCUCAUGAGCUGCCAUAAUA [(M1)-(M2)-(T1)-(T2)-(M)'-(T)'_Design2_2/19/17]
4. CCCUGGGUGGGAAGGAGCGCAUAGUGAACAUGAGGAUCACCCAUGUGCAGACGUGAGUCAUUGCAGGUAGGUCGCCCACCCAGGG [SS-ArgB22]

1: 51.9; 2: 274; 3: 19.2; 4: 21.4

----------
- Tested on: MS2 coat protein
- Procedure details: apparent KD of MS2 coat protein, switch OFF state (with FMN for OFF switches, without FMN for ON switches); designed switch direction (-1 OFF switch, 1 ON switch): -1; higher = weaker reporter binding
- Measurement setup: FMN input: 0 or 200 uM; Eterna round: R93 (includes R88 designs)
Endpoint name: apparent KD of MS2 coat protein (nM)
One number for each entry, in nM.

// solved cases for apparent KD of MS2 coat protein follow
| Item sequence | Test system | apparent KD of MS2 coat protein, nM |
| --- | --- | --- |
| GAAAAGUCAGGAUAUGUGGAAAAAAUAAAAAAAAUAAAAACACAGAAGGGACAUGAGGAUCACCCAUGUUAAAG [Mat - Exclusion 4 - Mayanna - D138] | MS2 coat protein | 32.5 |
| CUCUAGUUAGGAUAUGGAAGAAAAGAAAAGAAAGAAAAGAACCAGAAGGAACAUGAGGAUCACCCAUGUAAGAA [EteRNA is fun!] | MS2 coat protein | 34 |
| AAAAAACAUGAGGAUCACCCAUGUCAGGAUAUCCUAAAGAAACUCGUAAAAAGAAAUAGGAGAAGGGACAAAAA [PK4] | MS2 coat protein | 46.7 |
| AACAUGUUAGGAUAUCUAAGAAAAGAAAAGAAAGAAAAGAAAGAGAAGGAACAUGAGGAUCACCCAUGUAAGAA [EteRNA is fun!] | MS2 coat protein | 22.1 |
| AAGAAGAGAGGAUAUACAUGAGGAUCACCCAUGUAAAAGAAAGAAGGGAAAGAGAAAAGUAGAAGGCUCAAGAA [Usermaatre-setpenamun Rudamun] | MS2 coat protein | 31 |

Now, please, on to the next sequence.
Dear colleague, I am looking for the recorded apparent KD of MS2 coat protein of the following sequence: AGUUGGCGAGGAUAUACAUGAGGAUCACCCAUGUGAAAUCGCGAAGAAAUAGGGAAAAGUAGAAGGCGCUGACA [Ruby 61]
19.9

----------
Please provide measured apparent KD of K4 kissing-loop reporter for the entries that follow.
- System: K4 kissing-loop RNA reporter;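 further: bound reporter read as fluorescence of individual clusters on recovered sequencing chips by microscopy, with normalized cluster intensities fitted with a binding model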
- Procedure details: apparent KD of K4 kissing-loop reporter; higher = weaker reporter binding
- Measurement setup: Eterna round: R107; input ligand: FMN 200 uM
One number for each entry, in nM.

| Item sequence | Experimental value |
| --- | --- |
| UCCUGCACGGUCGAUACCAGCCUAUGCAGUGAUGUUGUAAGGUUGUCACUUUAGUACGAAGGCCCUUGGCAGCGAUGAUGUAACA [theeternabot_exclusion_KL_Theo_B_41] | 601 |

Could I get apparent KD of K4 kissing-loop reporter for every one of these entries?
1. AACCACUCGUUACAUCACUAUCGAGUGGAACGAGGACCGGUACGGCCGCCACUCGAUAAGAUGCAGUGAUGUUGCAUCUAAGAAU [KL-SSTryp-A (BrourdMod)5 #dotplot2 strengthened]
2. UUCCUAUUAUUAACACUAUAUACAACUGAAGGAGCGACAAUAAAGUCAGGUAGGUCGCAGAAUUAAUGAGUGAUGUUCAUUUUUA [JR_ExcArginiA_Sub013]
3. AAACAUCACUGGGAGUGAUGUUCUCAGUGACGAGGACCGGUACGGCCGCCACUCGCGAGAGAUUUAGUCUAGUAUUGACUGCAUU [Excl Tryptophan A V11]
4. AAUAACUUGCAGUGAUGUUGCAAGAAAUCUCAGGAUAUCAGGAAACUGAGAAGGGAGUAUCCUGAGUAAACAUCACAUCUUAGGA [KL-SSFMN-A8]
5. GGUUUUAACCGCAGUGAUGUUGCGUUGAAACGAGGACCGGUACGGCCGCCACUCGAAAAGAAGCGGCCAAAUUAAAAUCGUAAAG [Exclusion Tryptophan A GF 23]
6. CUUGGUCUACGAAGGAGCGCCGUGCAGUGAUGUUGCAGUCAGAUCGAGUGAUGUUUCGGGCGGCAGGUAGGUCGCGUGGCCCUUU [Excusion Arginine B GF 26]
7. AAAACUAUCAGAAGGAGCGUGGAAUAUACAUCUAUAUUUAAUACGAGUGAUGUUCGUAAUUCACAGGUAGGUCGCUGAUCAAUAA [whbob_Ex_Arginine_B_2th153]
8. GCAGUGAUGUUGCUGAUGUACAGUGGGAUACGAGGACCGGUACGGCCGCCACUCGUACAGAACUUAUUAAUACAUCGAUAAGUGA [XIV]

[208, 81.9, 294, 322, 129, 633, 228, 534]

Dear colleague, could you please provide apparent KD of K4 kissing-loop reporter for the sequences listed below?
1. UGAUAGGACAGAAGGAGCGGAAGUGAUGUUUCCAAAAGGGUAAGGUGUCAAAAGACACCCUUCCAGGUAGGUCGCUGUCCUAUCU
2. AUCUAUGAGCGAGGAUAUGCAUAACGCGAGUGAUGUUCGCGAUGUGGGCGUAAUUGAUAAAAUGAAGCAGAAGGCGCACUCAUGA [Exclusion - FMW B / B]
3. UGAUACCAGACUGAUACCAGCCACAGAGUCAAAGACUCUGAAAGGGAAACCAGUGAUGUUGGCCCUUGGCAGCAGUCUGGUAUCU [TheoBX 23 #SwitchBubble #StaticStem]

[93.9, 165, 502]

These measurements were taken from the supplement of paper PMC9170038.
